Readings of HμREL clearance CLhurel for the listed molecules
- System: cryopreserved human hepatocytes
- Details: flow 4.5 μL/min/chip, 30,000 hepatocytes per chamber, 100 μL
Marks after values point to notes of the source that are not given here.

Molecule: O=C1CC2(CCCC2)CC(=O)N1CCCCN1CCN(c2ncccn2)CC1 [Buspirone, buspirone]
HμREL clearance CLhurel: 3.13 μL/min/chip
//
Molecule: Cn1c(=O)c2c(ncn2C)n(C)c1=O [Caffeine, caffeine]
HμREL clearance CLhurel: 0.01^a μL/min/chip
//
Molecule: CCCc1nn(C)c2c(=O)[nH]c(-c3cc(S(=O)(=O)N4CCN(C)CC4)ccc3OCC)nc12 [Sildenafil, sildenafil]
HμREL clearance CLhurel: 1.13 μL/min/chip

Lookup: What measured HμREL clearance CLhurel goes with CC(C)(C)NC[C@H](O)COc1nsnc1N1CCOCC1 [Timolol, timolol] ?
Found: 0.35 μL/min/chip

Origin of the recorded values: paper PMC4487512
